- System: SNB-19
- assay: NCI tumour cell line growth inhibition, 48 h
Active and inactive are the calls of the source. No stated cut-off is given here; in the data, active = GI50 up to about 1.1 µM and inactive = higher.
Lab note: assign the record to one of class 1 = active, class 0 = inactive

Illustrative cases are given below, each with its answer.
CSc1scc2c1/C(=N/NC(N)=O)CCC2
class 0
COC1=CC(=O)C(Br)=CC1=O
class 0

Data request: Recorded test call requested for CC(=O)c1c(O)cc(O)c(-c2c(C)cc(O)c3c2C(=O)c2cccc(O)c2C3=O)c1O
Data returned: class 0

Data request: Recorded test call requested for COc1ccc2nc3ccccc3c(NCCCCN(CCCl)CCCl)c2c1
Data returned: class 1

Data request: Recorded test call requested for COC(=O)NN=C1C(C)(C)C(=NNC(=O)OC)C1(C)C
Data returned: class 0

Data request: Recorded test call requested for COc1ccc2c(c1)nc1n2C(N)=Nc2ccccc2S1
Data returned: class 0
